Source: patent US20210275683A1

Biological target: T1, Nectin-4 on MDA-MB-175-VII tumor cells (UniProt Q96NY8 32-510, limits assumed)
T1 construct: whole, on cells
T1 sequence (looked up): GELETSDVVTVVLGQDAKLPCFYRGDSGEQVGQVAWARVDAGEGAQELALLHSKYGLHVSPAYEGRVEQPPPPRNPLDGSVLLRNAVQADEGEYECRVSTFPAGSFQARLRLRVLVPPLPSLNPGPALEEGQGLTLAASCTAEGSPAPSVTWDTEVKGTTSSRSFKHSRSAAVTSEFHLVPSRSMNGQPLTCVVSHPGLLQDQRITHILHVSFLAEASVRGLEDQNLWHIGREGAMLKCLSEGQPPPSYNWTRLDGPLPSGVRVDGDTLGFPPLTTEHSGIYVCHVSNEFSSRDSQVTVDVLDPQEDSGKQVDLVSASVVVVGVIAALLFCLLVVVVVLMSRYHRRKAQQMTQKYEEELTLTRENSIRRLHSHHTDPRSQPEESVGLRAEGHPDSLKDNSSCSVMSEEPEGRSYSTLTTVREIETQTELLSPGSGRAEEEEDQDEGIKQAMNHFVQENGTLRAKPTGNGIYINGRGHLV
Assay: flow cytometry on MDA-MB-175-VII cells (Nectin-4 expressing tumor cell line), anti-huIgG1-PE secondary, MFI (Geo Mean)
The entries below come with measured EC50 values attached.
assayReadout: EC50 (µg/mL)

[
  {
    "binder": "D6C IgG1-Compound 2.14 (parental antibody TLR8 agonist conjugate) (antibody, V domains shown, IgG1) VH: EVMLVESGGALVKPGGSLKLSCVASGFTFSNYDMSWVRQTPEKRLEWVATISSGGSYTYYVDSVKGRFTISRDNARNTLHLQMSSLRSKDTAMYYCARQELGSYYAMDYWGQGTSVTVSS VL: DVVMTQTPLSLPVSLGDQASISCRSSQSIVHSNGNTYLEWYLQKPGQSPKLLIYKVSNRFSGVPDRFSGSGSGTDFTLKISRVEAEDLGVYYCFQGSHVPYTFGGGTKLEIK",
    "assayReadout": "EC50",
    "unitAbbrev": "µg/mL",
    "valueMeasured": 0.011
  },
  {
    "binder": "humanized D6C mAb with hzD6.2C VL (G34A), human IgG1 / human kappa (antibody, V domains shown, also called hzD6.2C mAb) VH: EVQLVESGGGLVQPGGSLRLSCAASGFTFSNYDMSWVRQAPGKGLEWVATISSGGSYTYYVDSVKGRFTISRDNAKNSLYLQMNSLRAEDTAVYYCARQELGSYYAMDYWGQGTTVTVSS VL: DIVMTQTPLSLPVTPGEPASISCRSSQSIVHSNANTYLEWYLQKPGQSPQLLIYKVSNRFSGVPDRFSGSGSGTDFTLKISRVEAEDVGVYYCFQGSHVPYTFGGGTKVEIKR",
    "assayReadout": "EC50",
    "unitAbbrev": "µg/mL",
    "valueMeasured": 0.012
  },
  {
    "binder": "D6C parental chimeric anti-Nectin-4 antibody (D6C IgG1) (antibody, V domains shown, Called the parental chimeric antibody; also called chimeric D6C) VH: EVMLVESGGALVKPGGSLKLSCVASGFTFSNYDMSWVRQTPEKRLEWVATISSGGSYTYYVDSVKGRFTISRDNARNTLHLQMSSLRSKDTAMYYCARQELGSYYAMDYWGQGTSVTVSS VL: DVVMTQTPLSLPVSLGDQASISCRSSQSIVHSNGNTYLEWYLQKPGQSPKLLIYKVSNRFSGVPDRFSGSGSGTDFTLKISRVEAEDLGVYYCFQGSHVPYTFGGGTKLEIK",
    "assayReadout": "EC50",
    "unitAbbrev": "µg/mL",
    "valueMeasured": 0.01
  },
  {
    "binder": "hzD6.2C-Compound 2.14 (anti-Nectin-4-TLR8 agonist immunoconjugate) (antibody, V domains shown, hzD6.2C conjugated to linker-TLR8 agonist Compound 2.14) VH: EVQLVESGGGLVQPGGSLRLSCAASGFTFSNYDMSWVRQAPGKGLEWVATISSGGSYTYYVDSVKGRFTISRDNAKNSLYLQMNSLRAEDTAVYYCARQELGSYYAMDYWGQGTTVTVSS VL: DIVMTQTPLSLPVTPGEPASISCRSSQSIVHSNANTYLEWYLQKPGQSPQLLIYKVSNRFSGVPDRFSGSGSGTDFTLKISRVEAEDVGVYYCFQGSHVPYTFGGGTKVEIKR",
    "assayReadout": "EC50",
    "unitAbbrev": "µg/mL",
    "valueMeasured": 0.0095
  }
]
